The listing below reports Ki for compounds tested on UniProt:P22748.
Sequence (P22748 whole entry): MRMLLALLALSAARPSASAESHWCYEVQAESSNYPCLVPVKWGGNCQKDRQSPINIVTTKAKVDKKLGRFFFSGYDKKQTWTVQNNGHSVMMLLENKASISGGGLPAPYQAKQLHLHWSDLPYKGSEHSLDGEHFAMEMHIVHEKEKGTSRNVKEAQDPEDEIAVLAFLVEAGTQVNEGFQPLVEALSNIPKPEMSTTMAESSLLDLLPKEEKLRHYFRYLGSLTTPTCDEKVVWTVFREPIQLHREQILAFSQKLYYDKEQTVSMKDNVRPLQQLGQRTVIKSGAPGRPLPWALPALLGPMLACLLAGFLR

Data request: Sample O=C(Nc1ccc(I)cc1C(=O)O)c1ccc2c(c1)C(=O)OC2=O — what was its Ki?
Data returned: > 10 µM

Data request: Same thing, different compound: O=C(Nc1ccc(Cl)cc1C(=O)O)c1ccc2c(c1)C(=O)OC2=O
Data returned: > 10 µM

---

testedOn: Carbonic anhydrase 1 (Homo sapiens)
Sequence (P00915 whole entry): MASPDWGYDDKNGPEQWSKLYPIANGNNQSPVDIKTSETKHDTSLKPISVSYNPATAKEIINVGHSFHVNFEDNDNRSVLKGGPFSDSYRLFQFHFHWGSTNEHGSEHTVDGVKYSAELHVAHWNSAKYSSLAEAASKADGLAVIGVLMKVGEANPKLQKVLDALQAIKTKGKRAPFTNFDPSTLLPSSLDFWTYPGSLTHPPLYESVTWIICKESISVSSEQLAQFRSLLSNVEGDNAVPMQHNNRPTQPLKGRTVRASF
reportedEndpoint: Ki

Data request: Sample CCOC(=O)c1ccc(N2C(=O)c3ccc(C(=O)Nc4ccccc4C(=O)O)cc3C2=O)cc1 — what was its Ki?
Data returned: > 10 µM
